molecular target: T1, human GHS-R1a receptor (growth hormone secretagogue receptor 1a) (human, UniProt Q92847 1-366); assay: competitive displacement of 125I-ghrelin, membranes of HEK293T cells with transfected human GHS-R1a
T1 construct: whole, on cells; Functional assays: HEK-293T cells transiently transfected with human GHS-R1a; also called ghrelin receptor
T1 sequence (Q92847 whole entry): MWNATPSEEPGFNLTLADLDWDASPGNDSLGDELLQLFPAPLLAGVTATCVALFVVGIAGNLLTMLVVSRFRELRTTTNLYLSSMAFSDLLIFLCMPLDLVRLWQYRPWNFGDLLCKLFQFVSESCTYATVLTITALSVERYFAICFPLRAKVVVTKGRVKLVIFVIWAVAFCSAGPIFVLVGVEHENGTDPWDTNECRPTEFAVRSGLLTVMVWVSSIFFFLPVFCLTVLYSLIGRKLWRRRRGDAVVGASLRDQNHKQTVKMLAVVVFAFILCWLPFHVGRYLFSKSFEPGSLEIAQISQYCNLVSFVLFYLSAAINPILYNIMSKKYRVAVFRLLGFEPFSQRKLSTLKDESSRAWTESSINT
Non-standard residues stand in square brackets, D forms with d. No end group written: not given here. *: point of attachment. Palmitoyl = CCCCCCCCCCCCCCCC(=O)*; Myristoyl = CCCCCCCCCCCCCC(=O)*; Decanoyl = CCCCCCCCCC(=O)*; Dap = NC[C@H](N)C(=O)O; Sar = CNCC(=O)O
Measurement label: % of ghrelin binding (%)
The response must be a number in % with no trailing unit.

Binder	Val
[Sar]S[Dap](Myristoyl)FLSPEHQKAQQRKES [ghrelin analog no. 18, (Sar)S(Dpr-N-myr)FLSPEHQKAQQRKES]	34
XSXFLSPEHQKAQQRKESKKPPAKLQPR (sarcosine (Sar) at position 1; diaminopropionic acid N-decanoyl (Dpr-N-dec) at position 3, Synthetic ghrelin analog) [ghrelin analog no. 1, (Sar)S(Dpr-N-dec)FLSPEHQKAQQRKESKKPPAKLQPR]	183
XSXXLSPEHQKAQQRKESKKPPAKLQPR (not fully specified; sarcosine (Sar) at position 1; diaminopropionic acid N-myristoyl (Dpr-N-myr) at position 3; dichlorophenylalanine (PheCl2) at position 4, Synthetic ghrelin analog; also called analog 14) [ghrelin analog no. 14, (Sar)S(Dpr-N-myr)(PheCl2)LSPEHQKAQQRKESKKPPAKLQPR]	7
GSXFLSPEHQKAQQRKESKKPPAKLQPR (diaminopropionic acid (Dpr) bearing octanoyl at position 3, Synthetic ghrelin analog) [Dpr^3ghrelin]	169
XSXXLSPEHQKAQQRKESKKPPAKLQPR (sarcosine (Sar) at position 1; diaminopropionic acid N-myristoyl (Dpr-N-myr) at position 3; cyclohexylalanine (Cha) at position 4, Synthetic ghrelin analog) [ghrelin analog no. 6, (Sar)S(Dpr-N-myr)(Cha)LSPEHQKAQQRKESKKPPAKLQPR]	18

Consider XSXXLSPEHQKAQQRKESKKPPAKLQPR (sarcosine (Sar) at position 1; diaminopropionic acid N-octanoyl (Dpr-N-oct) at position 3; tertbutylalanine (tBu) at position 4, Synthetic ghrelin analog) [ghrelin analog no. 10, (Sar)S(Dpr-N-oct)(tBu)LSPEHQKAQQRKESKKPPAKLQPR] . Its measured % of ghrelin binding is 24

Consider [Sar]S[Dap](Decanoyl)FLSPEHQKAQQRK(Palmitoyl)ES [ghrelin analog no. 15, (Sar)S(Dpr-N-dec)FLSPEHQKAQQRK(N-palm)ES] . Its measured % of ghrelin binding is 19

Recorded values, source patent US20170044230A1.
